experimental-details: Photostability, percentage remaining undegraded under illumination or in the dark
study-conditions: percentage remaining undegraded after 24 hours illumination
parameter-measured: Photostability 24 hours
Be sure to follow the number with its unit.

Cc1ccc(N2CC[C@@]3(O)C(=O)c4cc(C)c(C(F)(F)F)cc4N=C23)cc1Cl [BPN-0026786] ... 66.6%

Go through the list and state Photostability 24 hours for each entry.
1. Cc1cc2c(cc1C(F)(F)F)N=C1N(c3ccc(C#N)cc3)CC[C@@]1(O)C2=O [BPN-0027071]
2. COc1cccc(N2CC[C@@]3(O)C(=O)c4cc(C)c(C)cc4N=C23)c1 [BPN-0026497]
3. O=C1c2cc(Cl)ccc2N=C2N(c3ccc4ccsc4c3)CC[C@@]12O [BPN-0026545]

Ans.
95.3%
6.1%
5.1%

Go through the list and state Photostability 24 hours for each entry.
1. Cc1cc2c(cc1F)C(=O)[C@]1(O)CCN(c3cccs3)C1=N2 [BPN-0026748]
2. Cc1cc2c(s1)C(=O)[C@]1(O)CCN(c3ccc(C)c(Cl)c3)C1=N2 [BPN-0026882]

Ans.
["22.4%", "96.8%"]
